tested on: TK-10 renal; experiment: NCI tumour cell line growth inhibition, 48 h
measure: TGI (µM)

                                   compound  measurement_target  measure  unit_tag  cmp  meas_value
0  CC(C)=NOC(=O)CNC(=O)C(Cc1ccccc1)NC(=O)C(C)NC(=O)OC(C)(C)C (stereo not given)         TK-10 renal      TGI        µM    >         100
1  C/C(=N\NC(=O)c1ccc(Cl)cc1)c1nc2ncccc2[nH]1         TK-10 renal      TGI        µM    =        64.9
2          O=C(c1cccs1)c1nccc2c1cnc1ccccc12         TK-10 renal      TGI        µM    >         100
3  CCCCCCCCCc1ccc(OCCOCCOCCOCCOCCOCCOCCOCCOCCO)cc1         TK-10 renal      TGI        µM    =        1.93
4  C=C1C(=O)C23[C@H](O)C1CC[C@H]2[C@]12COC3(O)[C@@H](O)[C@@H]1C(C)(C)CC[C@@H]2O         TK-10 renal      TGI        µM    =          31

====

tested on: A498 renal; assay: NCI tumour cell line growth inhibition, 48 h
Catalogue of compounds with associated GI50
measure: GI50

compound	measure	meas.value
Cc1ccc(S(=O)(=O)c2nc(-c3ccccc3)oc2S(C)(=O)=O)cc1	GI50	15400 nM
CC(C)(C)[Si](C)(C)OC1[C@@H](CNC(N)=O)O[C@@H](n2cnc3c(NC(=O)Nc4ccccc4)ncnc32)[C@H]1O[Si](C)(C)C(C)(C)C (some centres undefined)	GI50	1560 nM
CCCN(CCC)c1ccc(C=O)c(Cl)c1	GI50	141 nM
COc1ccc(-c2cnnn2-c2nonc2-n2cccc2)cc1OC	GI50	2950 nM
COc1cc(C2=NN(C(C)=O)C(c3cc(OC)c(OC)c(OC)c3)C2)ccc1O (centres undefined)	GI50	260 nM
O=C(CC1(O)C(=O)Nc2ccc(F)cc21)c1ccc(C(=O)NCC2CCC3(CC2)OOC2(CCCCC2)OO3)cc1 (centres undefined)	GI50	13300 nM
CCCCCCNCCCNc1c2cc(OC)ccc2nc2cccc([N+](=O)[O-])c12	GI50	227 nM
CCN1[C@@H](C(=O)NC23CCC(C(=O)O)(CC2)CC3)[C@H](c2cccc(Cl)c2F)[C@]2(C(=O)Nc3cc(Cl)ccc32)C12CCCCC2	GI50	281 nM
COc1ccc(C(=O)c2sc3nc(-c4ccccc4OC)ccc3c2N)cc1OC	GI50	3380 nM

====

test system: SK-OV-3 ovarian; assay: NCI tumour cell line growth inhibition, 48 h; in the data active = GI50 below about 0.43 µM; inactive = the rest
Outcome codes: active, inactive

compound	measurement.target	group
C=C(CN1CCc2c([nH]c3ccccc23)C1)c1ccc(C(=O)Nc2ccccc2N)cc1	SK-OV-3 ovarian	inactive
COc1cccc(CNc2ncnc3c2ncn3C2OC(CO)C(O)C2O)c1O (stereo not drawn)	SK-OV-3 ovarian	active
COc1cc([C@@H]2c3cc4c(cc3[C@H](OC(C)=O)[C@H]3COC(=O)[C@@H]23)OCO4)cc(OC)c1OC	SK-OV-3 ovarian	active
CCCN(CCC)c1ccc(C=O)c(Cl)c1	SK-OV-3 ovarian	inactive
CCn1cc(/C=C2\Oc3cc(OCC#N)ccc3C2=O)c2cc(OC)ccc21	SK-OV-3 ovarian	inactive
CC(C)(C)[Si](C)(C)OC1[C@@H](CNC(N)=O)O[C@@H](n2cnc3c(NC(=O)Nc4ccccc4)ncnc32)[C@H]1O[Si](C)(C)C(C)(C)C (stereo partly drawn)	SK-OV-3 ovarian	inactive
Cc1cc(N/N=C/c2nc(-c3ccc(Cl)cc3)oc2C)c2cc(Br)ccc2n1	SK-OV-3 ovarian	inactive
COc1ccc2c(c1)C(=O)/C(=C/c1cccc(OCC(=O)Nc3nc(C)c(C)s3)c1)O2	SK-OV-3 ovarian	inactive

====

Catalogue of molecules with associated TGI
test system: HOP-18 NSCLC; test: NCI tumour cell line growth inhibition, 48 h
measure: TGI

>>> df
                                   molecule  meas_value
0  CCOC(=O)C1Cc2ccc3c4c(ccc(c24)C1)CC(C(=O)OCC)C3    > 100 µM
1             C#CCN(N=O)C(=O)ON1C(=O)CCC1=O    > 100 µM
2      c1cc2c3c(c1)c1cc4c(cc1c[n+]3CC2)OCO4     88.4 µM
3  CC1(C)COC2C(N(Cc3ccccc3)Cc3ccccc3)C(=O)N21 (stereo not given)    > 100 µM
4  CCCCCCC(O)CC[C@H]1CCC[C@@H](C)N1 (stereo not given in full)    > 100 µM

====

test system: KM12 colon; experiment: NCI tumour cell line growth inhibition, 48 h; in the data active means GI50 below about 0.43 µM; inactive means the rest
Outcome codes: active, inactive

compound	group
O=C(NN1C(=O)CSC1c1cccc(Cl)c1)C(O)c1ccccc1 (stereo not given)	inactive
COc1cc([C@@H]2c3cc4c(cc3[C@H](OC(C)=O)[C@H]3COC(=O)[C@@H]23)OCO4)cc(OC)c1OC	active
Cc1ccc(S(=O)(=O)c2nc(-c3ccccc3)oc2S(C)(=O)=O)cc1	inactive
C=C1C(=O)O[C@H]2[C@H]1CC/C(COC(=O)N[C@H]1C[C@H](O[C@H]3C[C@](O)(C(=O)CO)Cc4c(O)c5c(c(O)c43)C(=O)c3c(OC)cccc3C5=O)O[C@@H](C)[C@H]1O)=C\CC[C@@]1(C)O[C@@H]21	inactive
COc1ccc(-c2c(C#N)c(N)nc(N3CCOCC3)c2C#N)cc1	inactive
COc1cccc(CNc2ncnc3c2ncn3C2OC(CO)C(O)C2O)c1O (stereo not given)	inactive
Cc1cc(N/N=C/c2nc(-c3ccc(Cl)cc3)oc2C)c2cc(Br)ccc2n1	inactive
COc1cc(OC)c2sc(-c3ccc(-n4cncc4-c4ccc(OC)c(OC)c4)cc3)nc2c1	inactive
CCOc1cc(/C=C/C(=O)C(C(=O)/C=C/c2ccc(OC(=O)CNc3nc4ccccc4[nH]3)c(OCC)c2)C(=O)CNc2nc3ccccc3[nH]2)ccc1OC(=O)CNc1nc2ccccc2[nH]1	inactive
Nc1c(C(=O)c2cccc(C#CCN3CCCCC3)c2)cnn1-c1ccc(F)cc1	inactive

====

system: DU-145 prostate; test: NCI tumour cell line growth inhibition, 48 h
Catalogue of compounds with associated TGI
measure: TGI

>>> df
                                    compound  meas_value
 0  C=C1C[C@@H](O)[C@@H](Br)C(C)(C)[C@@]12C=CC(=O)CC2    > 100 µM
 1  COc1cc(/C=C2\C[C@H]3[C@@H]4CCC5=CC(=O)CC[C@]5(C)[C@H]4CC[C@]3(C)C2=O)cc(OC)c1OC    > 100 µM
 2          O=C(c1cccs1)c1nccc2c1cnc1ccccc12    > 100 µM
 3  COc1cccc(CNc2ncnc3c2ncn3C2OC(CO)C(O)C2O)c1O (stereo unspecified)     1.22 µM
 4  CC(C)(C)C(=O)Oc1ccc(/C=C/C(=O)c2ccc(OC(=O)C(C)(C)C)cc2)cc1    > 100 µM
 5  Clc1ccc(-c2cc(-c3cc4cc(Br)ccc4nc3Cl)on2)cc1     > 50 µM
 6          COc1cc(/C=N/N=C(\N)NO)cc(OC)c1OC    > 100 µM
 7  COC(=O)C1Cc2c(OC)ccc(OC)c2C(O)C1C(=O)OC (stereo unspecified)    > 100 µM
 8    COc1ccc(-c2cnnn2-c2nonc2-n2cccc2)cc1OC    > 100 µM
 9  CC1CN=C(Nc2cccc(F)c2)S1 (stereo unspecified)    > 100 µM
10  COc1ccc2c(c1)CN([C@@H](C)[C@H]1CC[C@H]3[C@@H]4CC[C@H]5C[C@@H](O)CC[C@]5(C)[C@H]4CC[C@]13C)CO2     13.7 µM

====

Catalogue of compounds with associated GI50
test system: DU-145 prostate; assay: NCI tumour cell line growth inhibition, 48 h
measure: GI50

>>> df
                                    compound  measurement_target  meas_value
 0  CCOC(=O)c1sc(-c2ccc(OS(=O)(=O)C[C@]34CCC(CC3=O)C4(C)C)c(C=O)c2)nc1C     DU-145 prostate     1.55 µM
 1  COc1ccc(C(=O)c2sc3nc(-c4ccccc4OC)ccc3c2N)cc1OC     DU-145 prostate     27.9 µM
 2  CCn1cc(/C=C2\Oc3cc(OCC#N)ccc3C2=O)c2cc(OC)ccc21     DU-145 prostate     0.44 µM
 3  CC(=O)c1ccc2c(c1)N(CCCN1CCN(CCO)CC1)c1ccccc1S2     DU-145 prostate     4.55 µM
 4  C/C(=C(/c1ccccc1)c1ccc(OCC(O)CNCCN2CCOCC2)cc1)c1ccccc1 (centres undefined)     DU-145 prostate     4.37 µM
 5  N=C(N)c1ccc(-c2ccc(-c3ccc(Cl)c(Cl)c3)s2)cc1     DU-145 prostate     1.75 µM
 6  C=C(CN1CCc2c([nH]c3ccccc23)C1)c1ccc(C(=O)Nc2ccccc2N)cc1     DU-145 prostate     3.85 µM
 7  COc1cccc(CNc2ncnc3c2ncn3C2OC(CO)C(O)C2O)c1O (centres undefined)     DU-145 prostate   0.0733 µM
 8  CCN1[C@@H](C(=O)NC23CCC(C(=O)O)(CC2)CC3)[C@H](c2cccc(Cl)c2F)[C@]2(C(=O)Nc3cc(Cl)ccc32)C12CCCCC2     DU-145 prostate     5.47 µM
 9  Cc1cc(N/N=C/c2nc(-c3ccc(Cl)cc3)oc2C)c2cc(Br)ccc2n1     DU-145 prostate     2.66 µM
10  c1ccc(-c2nc3n(c2-c2ccc4c(c2)OCO4)CCC3)nc1     DU-145 prostate     7.22 µM
11  O=C(c1ccc2ccccc2c1)c1nc2cc(F)ccc2[n+]([O-])c1C(F)(F)F     DU-145 prostate     20.9 µM
12  Cn1c(=O)n(C)c2cc(CNCCNc3ccnc4cc(Cl)ccc34)ccc21     DU-145 prostate     38.5 µM
13  COc1cc([C@@H]2c3cc4c(cc3[C@H](OC(C)=O)[C@H]3COC(=O)[C@@H]23)OCO4)cc(OC)c1OC     DU-145 prostate    0.245 µM
